Test system: Aspergillus niger
ASSAY TEXT: Antifungal activity against Aspergillus niger measured on day 4 by broth microdilution method
Format: functional
REPORTED CONDITIONS: 96 h
Where a SMILES comes first, the peptide text is derived from it. The star is where a group is joined. Benzoyl(4-B(OH)2) = O=C(c1ccc(B(O)O)cc1)*; Acridin9yl = c1ccc2c(*)c3ccccc3nc2c1

{"columns": ["MOLECULE", "SYSTEM NAME", "UNIT OF MEASUREMENT", "MIC"],
 "data": [
  ["CC(C)C[C@H](NC(=O)[C@H](CCCCN)NC(=O)[C@H](CCCCN)NC(=O)[C@H](CCCCNc1c2ccccc2nc2ccccc12)NC(=O)[C@H](CCCCN)NC(=O)[C@H](CCCCN)NC(=O)[C@H](CCCCNc1c2ccccc2nc2ccccc12)NC(=O)[C@@H](N)CCCCN)C(=O)N[C@@H](CCCCNC(=O)c1ccc(B(O)O)cc1)C(=O)N[C@@H](Cc1ccc(O)cc1)C(=O)O (H-KK(Acridin9yl)KKK(Acridin9yl)KKLK(Benzoyl(4-B(OH)2))Y-OH)", "Aspergillus niger", "µg/mL", 32]
]}
